tgt: PD-L1 (CHO-hPD-L1 cells) (Homo sapiens, UniProt Q9NZQ7)
Sequence (Q9NZQ7 19-290): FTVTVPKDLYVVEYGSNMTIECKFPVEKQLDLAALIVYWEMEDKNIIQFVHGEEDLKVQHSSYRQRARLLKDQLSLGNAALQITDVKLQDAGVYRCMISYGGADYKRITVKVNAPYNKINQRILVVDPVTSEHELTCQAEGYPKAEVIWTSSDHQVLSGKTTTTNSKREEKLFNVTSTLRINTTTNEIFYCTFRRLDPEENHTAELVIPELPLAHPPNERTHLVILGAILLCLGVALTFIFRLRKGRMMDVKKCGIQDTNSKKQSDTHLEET
metric.name: Ki

Request: Look up and report measured Ki for this entry: Cc1c(COc2cc(OCc3ccnc(C#N)c3)c(CN(C)[C@H](CO)C(=O)O)cc2Cl)cccc1-c1ccc2c(c1)OCCO2 [Compound 5a]
Response: 700 to 4500 nM

Request: Look up and report measured Ki for this entry: Cc1c(COc2cc(OCc3ccnc(C#N)c3)c(CN(C)CCO)cc2Cl)cccc1-c1ccc2c(c1)OCCO2 [Compound 5c]
Response: 700 to 4500 nM

----------
tgt: human PD-L1 (Homo sapiens, UniProt Q9NZQ7)
Construct: purchased Cisbio Bioassays SAS, Codolet, France 64PD1PEG
Sequence (Q9NZQ7 19-238 limits assumed): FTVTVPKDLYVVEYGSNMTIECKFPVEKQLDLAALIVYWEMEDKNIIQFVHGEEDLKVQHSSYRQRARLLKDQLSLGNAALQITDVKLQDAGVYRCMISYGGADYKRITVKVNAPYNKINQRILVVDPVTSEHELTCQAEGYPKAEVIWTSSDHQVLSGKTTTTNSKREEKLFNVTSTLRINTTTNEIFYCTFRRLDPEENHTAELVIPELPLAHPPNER
run.description: HTRF PD-1/PD-L1 binding assay (cell-free)
measurement.context: IC50 ratio; pairs 4c vs 5a, 4c vs 5b, 4e vs 5c, 4e vs 5d
metric.name: fold decrease in affinity by methylation at R3*
Kindly format the answer as number then unit.

Request: Look up and report measured fold decrease in affinity by methylation at R3* for this entry: COCCNCc1cc(Cl)c(OCc2cccc(-c3ccc4c(c3)OCCO4)c2C)cc1OCc1ccnc(C#N)c1 [Compound 5d]
Response: 2.42 fold

Request: Look up and report measured fold decrease in affinity by methylation at R3* for this entry: COC(=O)[C@@H](CO)NCc1cc(Cl)c(OCc2cccc(-c3ccc4c(c3)OCCO4)c2C)cc1OCc1ccnc(C#N)c1 [Compound 5b]
Response: 4.98 fold

Request: Look up and report measured fold decrease in affinity by methylation at R3* for this entry: Cc1c(COc2cc(OCc3ccnc(C#N)c3)c(CN(C)[C@H](CO)C(=O)O)cc2Cl)cccc1-c1ccc2c(c1)OCCO2 [Compound 5a]
Response: 1.02 fold

Request: Look up and report measured fold decrease in affinity by methylation at R3* for this entry: Cc1c(COc2cc(OCc3ccnc(C#N)c3)c(CN(C)CCO)cc2Cl)cccc1-c1ccc2c(c1)OCCO2 [Compound 5c]
Response: 1.32 fold

----------
tgt: human PD-L1 (Homo sapiens)
Construct: purchased Cisbio Bioassays SAS, Codolet, France 64PD1PEG
run.description: HTRF PD-1/PD-L1 binding assay (cell-free)
measurement.context: cell-free competitive PD-1/PD-L1 HTRF; mean ± SD; read-out: IC50 (hPD-L1 binding affinity, HTRF)
Please go through the items and note down their pIC50.
// field semantics: pIC50 = negative decimal log of concentration (mol/L)

Request: Look up and report measured pIC50 for this entry: COCCNCc1cc(Cl)c(OCc2cccc(-c3ccc4c(c3)OCCO4)c2C)cc1OCc1ccnc(C#N)c1
Response: 7.72

Request: Look up and report measured pIC50 for this entry: Cc1c(COc2cc(OCc3ccnc(C#N)c3)c(CN3CCCC[C@H]3C(=O)O)cc2Cl)cccc1-c1ccc2c(c1)OCCO2
Response: 8.31

Request: Look up and report measured pIC50 for this entry: CC(=O)N1CCN(Cc2cc(Cl)c(OCc3cccc(-c4ccc5c(c4)OCCO5)c3C)cc2OCc2cccc(C#N)c2)C1=O
Response: 6.23

Request: Look up and report measured pIC50 for this entry: CC(=O)NCCNCc1cc(Cl)c(OCc2cccc(-c3ccc4c(c3)OCCO4)c2C)cc1OCc1cccc(C#N)c1
Response: 7.96

Request: Look up and report measured pIC50 for this entry: Cc1c(COc2cc(OCc3ccnc(C#N)c3)c(CN3CCCC[C@H]3C(=O)OCCF)cc2Cl)cccc1-c1ccc2c(c1)OCCO2
Response: 5.89

Request: Look up and report measured pIC50 for this entry: Cc1c(COc2cc(OCc3ccnc(C#N)c3)c(CNCCO)cc2Cl)cccc1-c1ccc2c(c1)OCCO2
Response: 8.11

----------
run.description: Lipophilicity by HPLC method (μHPLC logD)
measurement.context: pH 7.4
metric.name: μHPLC logD

Request: Look up and report measured μHPLC logD for this entry: COCCNCc1cc(Cl)c(OCc2cccc(-c3ccc4c(c3)OCCO4)c2C)cc1OCc1ccnc(C#N)c1 [Compound 5d]
Response: 5.1 ± 0.3

Request: Look up and report measured μHPLC logD for this entry: CC(=O)NCCNCc1cc(Cl)c(OCc2cccc(-c3ccc4c(c3)OCCO4)c2C)cc1OCc1ccnc(C#N)c1 [Compound 4d]
Response: 4.5 ± 0.2

Request: Look up and report measured μHPLC logD for this entry: CC(=O)NCCNCc1cc(Cl)c(OCc2cccc(-c3ccc4c(c3)OCCO4)c2C)cc1OCc1cocn1 [Compound 4k]
Response: 4.2 ± 0.2

Request: Look up and report measured μHPLC logD for this entry: Cc1c(COc2cc(OCc3ccnc(C#N)c3)c(CNCCO)cc2Cl)cccc1-c1ccc2c(c1)OCCO2 [Compound 4e]
Response: 4.7 ± 0.2

Request: Look up and report measured μHPLC logD for this entry: CC(=O)N1CCN(Cc2cc(Cl)c(OCc3cccc(-c4ccc5c(c4)OCCO5)c3C)cc2OCc2cccc(C#N)c2)C1=O [Compound 5e]
Response: 5.6 ± 0.4

Request: Look up and report measured μHPLC logD for this entry: COC(=O)[C@@H](CO)NCc1cc(Cl)c(OCc2cccc(-c3ccc4c(c3)OCCO4)c2C)cc1OCc1ccnc(C#N)c1 [Compound 5b]
Response: 4.9 ± 0.3

Request: Look up and report measured μHPLC logD for this entry: Cc1c(COc2cc(OCc3ccnc(C#N)c3)c(CN(C)CCO)cc2Cl)cccc1-n1cccc1 [Compound 5f]
Response: 4.5 ± 0.2

----------
tgt: human PD-L1 (Homo sapiens, UniProt Q9NZQ7)
Construct: purchased Cisbio Bioassays SAS, Codolet, France 64PD1PEG
run.description: HTRF PD-1/PD-L1 binding assay (cell-free)
measurement.context: IC50 ratio; pairs 4c vs 4m, 4e vs 4n, 4f vs 4o, 5c vs 5f
Please go through the items and note down their fold reduction of affinity, pyrrole at R1 vs 1,4-benzodioxanyl analogue.
Field: numeric (fold). Do not append units.

Request: Recall the reported fold reduction of affinity, pyrrole at R1 vs 1,4-benzodioxanyl analogue of Cc1c(COc2cc(OCc3ccnc(C#N)c3)c(CNCCO)cc2Cl)cccc1-n1cccc1 when tested on human PD-L1 (Homo sapiens, UniProt Q9NZQ7).
Response: 6.40

Request: Recall the reported fold reduction of affinity, pyrrole at R1 vs 1,4-benzodioxanyl analogue of Cc1c(COc2cc(OCc3ccnc(C#N)c3)c(CN[C@H](CO)C(=O)O)cc2Cl)cccc1-n1cccc1 when tested on human PD-L1 (Homo sapiens, UniProt Q9NZQ7).
Response: 1.03

Request: Recall the reported fold reduction of affinity, pyrrole at R1 vs 1,4-benzodioxanyl analogue of Cc1c(COc2cc(OCc3ccnc(C#N)c3)c(CN(C)CCO)cc2Cl)cccc1-n1cccc1 when tested on human PD-L1 (Homo sapiens, UniProt Q9NZQ7).
Response: 1.61

Request: Recall the reported fold reduction of affinity, pyrrole at R1 vs 1,4-benzodioxanyl analogue of Cc1c(COc2cc(OCc3ccnc(C#N)c3)c(CN3CCCC[C@H]3C(=O)O)cc2Cl)cccc1-n1cccc1 when tested on human PD-L1 (Homo sapiens, UniProt Q9NZQ7).
Response: 5.99

----------
tgt: human PD-L1 (Homo sapiens, UniProt Q9NZQ7)
Construct: purchased Cisbio Bioassays SAS, Codolet, France 64PD1PEG
run.description: HTRF PD-1/PD-L1 binding assay (cell-free)
measurement.context: no full dose–response curves observed, values are relative IC50; read-out: relative IC50 (hPD-L1 binding affinity, HTRF)
metric.name: pIC50
// field semantics: pIC50 = negative decimal log of concentration (mol/L)

Request: Look up and report measured pIC50 for this entry: Cc1c(COc2cc(OCc3ccnc(C#N)c3)c(C=O)cc2Cl)cccc1-c1ccc2c(c1)OCCO2
Response: 6.68

Request: Look up and report measured pIC50 for this entry: Cc1c(COc2cc(OCc3cccc(C#N)c3)c(C=O)cc2Cl)cccc1-c1ccccc1
Response: 5.89

----------
run.description: Lipophilicity by HPLC method (μHPLC logD)
measurement.context: pH 7.4
metric.name: μHPLC logD
Form rule: numeric answer, no unit written next to it.

Request: Look up and report measured μHPLC logD for this entry: CC(=O)NCCNCc1cc(Cl)c(OCc2cccc(-c3ccc4c(c3)OCCO4)c2C)cc1OCc1cccc(C#N)c1
Response: 4.7

Request: Look up and report measured μHPLC logD for this entry: Cc1c(COc2cc(OCc3ccnc(C#N)c3)c(CN(C)CCO)cc2Cl)cccc1-c1ccc2c(c1)OCCO2
Response: 4.9

Request: Look up and report measured μHPLC logD for this entry: CC(=O)NCCNCc1cnc(OCc2cccc(-c3ccccc3)c2C)c(Cl)c1
Response: 2.3

Request: Look up and report measured μHPLC logD for this entry: Cc1c(COc2cc(OCc3ccnc(C#N)c3)c(CNCCO)cc2Cl)cccc1-n1cccc1
Response: 4.3

Request: Look up and report measured μHPLC logD for this entry: Cc1c(COc2cc(OCc3ccnc(C#N)c3)c(CNCCF)cc2Cl)cccc1-c1ccc2c(c1)OCCO2
Response: 5.2
